target: T1, SARS-CoV-2 S1 protein (SARS-CoV-2, UniProt P0DTC2 16-685); experiment: inhibitor ELISA, competitor ACE2
T1 construct: also called SARS-CoV-2 Spike Glycoprotein S1; S1 (subunit 1)
# pIC50 annotations
A value of pIC50 is the negative decimal logarithm of a concentration given in moles per litre.

Known pIC50 results, listed for orientation:
2-13 (antibody, V domains shown, also called variant 2-13) VH: EVQLLESGGGLVQPGGSLRLSCAASGFTFSDYPMNWVRQAPGKGLEWVSAISGSGDNTYYADSVKGRFTISRDNSKNTLYLQMNSLRAEDTAVYYCVRHDEYSFDYWGQGTLVTVSS VL: DIQMTQSPSSLSASVGDRVTITCRASQSIDTYLNWYQQKPGKAPKLLIYGASALESGVPSRFSGSGSGTDFTLTISSLQPEDFATYYCQQSHSAPPYFFGQGTKVEIK: 7.35
2-5 (antibody, V domains shown, also called variant 2-5) VH: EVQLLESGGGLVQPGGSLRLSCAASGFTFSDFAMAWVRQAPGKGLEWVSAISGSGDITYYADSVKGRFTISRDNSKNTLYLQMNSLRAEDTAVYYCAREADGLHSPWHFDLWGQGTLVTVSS VL: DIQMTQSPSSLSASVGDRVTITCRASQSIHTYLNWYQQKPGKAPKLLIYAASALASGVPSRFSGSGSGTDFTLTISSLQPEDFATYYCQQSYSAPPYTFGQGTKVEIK: 8.38
2-2 (antibody, V domains shown, also called variant 2-2) VH: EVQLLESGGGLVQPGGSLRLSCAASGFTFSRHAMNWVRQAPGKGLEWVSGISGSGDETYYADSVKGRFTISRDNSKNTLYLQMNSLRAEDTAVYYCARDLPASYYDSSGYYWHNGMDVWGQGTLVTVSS VL: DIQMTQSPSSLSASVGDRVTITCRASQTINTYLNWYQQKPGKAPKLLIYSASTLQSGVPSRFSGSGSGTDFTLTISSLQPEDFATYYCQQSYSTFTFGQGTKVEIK: 8.44
2-12 (antibody, V domains shown, also called variant 2-12) VH: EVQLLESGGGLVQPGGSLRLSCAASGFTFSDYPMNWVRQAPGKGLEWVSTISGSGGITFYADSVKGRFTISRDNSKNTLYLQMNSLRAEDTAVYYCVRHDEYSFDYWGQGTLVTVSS VL: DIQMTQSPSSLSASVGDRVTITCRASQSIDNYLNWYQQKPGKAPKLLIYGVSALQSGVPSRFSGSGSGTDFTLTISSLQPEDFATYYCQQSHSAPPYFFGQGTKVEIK: 9.00

pIC50 in this record for 2-8 (antibody, V domains shown, also called variant 2-8) VH: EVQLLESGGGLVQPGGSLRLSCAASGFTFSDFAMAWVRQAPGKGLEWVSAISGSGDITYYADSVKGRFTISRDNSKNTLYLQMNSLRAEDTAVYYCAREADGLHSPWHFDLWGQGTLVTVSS VL: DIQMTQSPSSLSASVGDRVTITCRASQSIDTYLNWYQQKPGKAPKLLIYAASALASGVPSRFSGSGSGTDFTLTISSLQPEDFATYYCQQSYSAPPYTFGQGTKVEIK : 7.91
